Molecular target: Bombyx mori EcR (VP16 fusion, CVBE switch construct) (Bombyx mori, UniProt P49881)
Sequence (P49881 86-606): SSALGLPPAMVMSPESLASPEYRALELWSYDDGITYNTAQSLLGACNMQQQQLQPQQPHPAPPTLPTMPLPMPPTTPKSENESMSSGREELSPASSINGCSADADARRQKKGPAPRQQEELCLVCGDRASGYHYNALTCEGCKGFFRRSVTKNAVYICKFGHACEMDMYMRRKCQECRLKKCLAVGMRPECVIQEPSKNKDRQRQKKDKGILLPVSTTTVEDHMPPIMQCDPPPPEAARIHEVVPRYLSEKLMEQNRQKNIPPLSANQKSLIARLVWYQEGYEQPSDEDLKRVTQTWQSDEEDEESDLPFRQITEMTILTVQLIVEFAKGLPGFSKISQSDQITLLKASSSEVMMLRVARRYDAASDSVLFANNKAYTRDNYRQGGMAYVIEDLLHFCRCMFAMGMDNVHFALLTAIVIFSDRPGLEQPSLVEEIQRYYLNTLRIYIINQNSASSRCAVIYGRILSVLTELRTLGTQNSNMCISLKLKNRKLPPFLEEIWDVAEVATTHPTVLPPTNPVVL
Sequence (P19793 whole entry partner, the tested form may be a part): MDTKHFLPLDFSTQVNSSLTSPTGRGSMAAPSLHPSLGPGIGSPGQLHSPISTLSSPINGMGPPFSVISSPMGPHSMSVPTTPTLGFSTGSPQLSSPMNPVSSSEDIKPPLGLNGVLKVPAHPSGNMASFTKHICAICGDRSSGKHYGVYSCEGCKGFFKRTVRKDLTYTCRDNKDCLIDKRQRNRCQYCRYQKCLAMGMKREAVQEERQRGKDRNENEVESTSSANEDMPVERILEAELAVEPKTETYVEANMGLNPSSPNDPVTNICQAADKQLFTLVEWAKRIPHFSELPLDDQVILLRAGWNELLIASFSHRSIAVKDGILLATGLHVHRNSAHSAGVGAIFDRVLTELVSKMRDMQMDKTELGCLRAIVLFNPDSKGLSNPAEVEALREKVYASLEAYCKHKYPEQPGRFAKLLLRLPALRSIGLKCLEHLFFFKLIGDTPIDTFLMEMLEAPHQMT
Assay: Z3 Assay (HEK-293 cells with CVBE and 6XEcRE LacZ, β-galactosidase reporter)
Settings: 33 uM ligand; ligand treated / DMSO treated cells; average of two wells
VALUE_KIND: Fold Induction, Z3 Assay, 33 uM

[[record]]
molecule = "CCc1c(C(=O)NN(C(=O)c2ccccc2OC)C(C)(C)C)ccc2c1OCCO2 [RG-100690]"
value_kind = "Fold Induction, Z3 Assay, 33 uM"
result = 475

[[record]]
molecule = "Cc1c(C(=O)NN(C(=O)c2ccc(F)cc2)C(C)(C)C)ccc2c1OCCO2"
value_kind = "Fold Induction, Z3 Assay, 33 uM"
result = 592

[[record]]
molecule = "Cc1c(C(=O)NN(C(=O)c2ccc(F)cc2)C(C)(C)C)ccc2c1CCCO2"
value_kind = "Fold Induction, Z3 Assay, 33 uM"
result = 1160

[[record]]
molecule = "CCc1c(C(=O)NN(C(=O)c2ccc(Cl)cc2OC)C(C)(C)C)ccc2c1OCO2"
value_kind = "Fold Induction, Z3 Assay, 33 uM"
result = 627

[[record]]
molecule = "CCc1c(OC)cccc1C(=O)NN(C(=O)c1cccc(F)c1)C(C)(C)C"
value_kind = "Fold Induction, Z3 Assay, 33 uM"
result = 420

[[record]]
molecule = "COc1cc(C)ccc1C(=O)N(NC(=O)c1cccc(OC)c1C)C(C)(C)C"
value_kind = "Fold Induction, Z3 Assay, 33 uM"
result = 542

[[record]]
molecule = "CCc1c(OC)cccc1C(=O)NN(C(=O)c1cc(C)cc(C)c1)C(C)(C)COC(C)=O"
value_kind = "Fold Induction, Z3 Assay, 33 uM"
result = 960

[[record]]
molecule = "Cc1c(C(=O)NN(C(=O)c2cc(F)c(Cl)cc2Cl)C(C)(C)C)ccc2c1CCCO2"
value_kind = "Fold Induction, Z3 Assay, 33 uM"
result = 339


* * *

Target: GAL4 DBD-CfEcR(DEF)/VP16AD-MmRXRE (Choristoneura fumiferana, UniProt O77240)
Assay: 13B3 Assay (CHO stable cell line, luciferase reporter)
Settings: read-out: 13B3 EC50; CHO 13B3 stable cell line, luciferase reporter, 48 h; average of two wells
pEC50: −log10 of the molar value.
VALUE_KIND: pEC50

[[record]]
compound = "CCc1ccc(C(=O)NN(C(=O)c2ccccc2[N+](=O)[O-])C(C)(C)C)cc1"
bound_sign = "="
recorded_number = 5.65

[[record]]
compound = "Cc1cc(C)cc(C(=O)N(NC(=O)c2ccc3c(c2F)COCO3)C(C)(C)C)c1"
bound_sign = "="
recorded_number = 6.03

[[record]]
compound = "CCc1c(OC)cccc1C(=O)NN(C(=O)c1cccc(F)c1F)C(C)(C)C"
bound_sign = "="
recorded_number = 6.04

[[record]]
compound = "Cc1cc(C)cc(C(=O)N(NC(=O)c2ccc3c(c2C)CCCO3)C(C)(C)C)c1"
bound_sign = "="
recorded_number = 7.04

[[record]]
compound = "CCc1c(OC)cccc1C(=O)NN(C(=O)c1cccc(Br)c1)C(C)(C)C"
bound_sign = "="
recorded_number = 5.76

[[record]]
compound = "COc1cc(Cl)ccc1C(=O)N(NC(=O)c1cccc(OC)c1C)C(C)(C)C"
bound_sign = "="
recorded_number = 5.78

[[record]]
compound = "Cc1cc(C)cc(C(=O)N(NC(=O)c2ccc3c(c2Br)OCCO3)C(C)(C)C)c1"
bound_sign = "="
recorded_number = 6.97

[[record]]
compound = "COc1cc(C(=O)N(NC(=O)c2ccc3c(c2C)OCCO3)C(C)(C)C)c([N+](=O)[O-])c(OC)c1C"
bound_sign = "="
recorded_number = 4.86

[[record]]
compound = "Cc1cc(C(=O)N(NC(=O)c2cccc(Cl)c2C)C(C)(C)C)ccc1Br"
bound_sign = "<"
recorded_number = 4.30

[[record]]
compound = "CCc1c(OC)cccc1C(=O)NN(C(=O)c1cc(C)ccc1[N+](=O)[O-])C(C)(C)C"
bound_sign = "="
recorded_number = 6.09

[[record]]
compound = "CCc1c(C(=O)NN(C(=O)c2ccc(Cl)cc2F)C(C)(C)C)ccc2c1OCCO2"
bound_sign = "="
recorded_number = 6.27

[[record]]
compound = "CCc1cccc(C(=O)NN(C(=O)c2cc(C)cc(C)c2)C(C)(C)C)c1C"
bound_sign = "="
recorded_number = 6.39

[[record]]
compound = "CCc1c(OC)cccc1C(=O)NN(C(=O)c1cc(OC)c(OC(C)=O)c(OC)c1)C(C)(C)C"
bound_sign = "<"
recorded_number = 4.30

[[record]]
compound = "COc1cccc(C(=O)NN(C(=O)c2cccc(C)c2)C(C)(C)C)c1C"
bound_sign = "="
recorded_number = 6.39

[[record]]
compound = "COc1cccc(C(=O)NN(C(=O)c2cc(C)cc(C)c2)C(C)(C)C)c1C[S+](C)[O-] (centres unmarked)"
bound_sign = "<"
recorded_number = 4.30

[[record]]
compound = "Cc1c(C(=O)NN(C(=O)c2cc(Cl)nc(Cl)c2)C(C)(C)C)ccc2c1OCCO2"
bound_sign = "="
recorded_number = 6.11

[[record]]
compound = "CCc1c(OC)cccc1C(=O)NN(C(=O)c1cc(C)cc(COC(C)=O)c1)C(C)(C)C"
bound_sign = "<"
recorded_number = 4.30


* * *

Molecular target: GAL4 DBD-CfEcR(DEF)/VP16AD-MmRXRE (Choristoneura fumiferana, UniProt O77240)
Assay: 13B3 Assay (CHO stable cell line, luciferase reporter)
Conditions: 33 uM ligand; RLU ligand treated / RLU DMSO treated cells; average of two wells
Quick reference: Fold Induction, 13B3 Assay, 33 uM of the listed items.
VALUE_KIND: Fold Induction, 13B3 Assay, 33 uM

[[record]]
chemical_structure = "CCc1ccc(C(=O)NN(C(=O)c2cc(OC)c(C)c(OC)c2)C(C)(C)C)c(F)c1"
recorded_number = 199

[[record]]
chemical_structure = "CCc1c(C(=O)NN(C(=O)c2ccc(Cl)cc2OC)C(C)(C)C)ccc2c1OCO2"
recorded_number = 236

[[record]]
chemical_structure = "CCc1c(OC)cccc1C(=O)NN(C(=O)c1cc(C)cc(COC(C)=O)c1)C(C)(C)C"
recorded_number = 3437

[[record]]
chemical_structure = "Cc1cc(C)cc(C(=O)N(NC(=O)c2ccc3ncsc3c2)C(C)(C)C)c1"
recorded_number = 1874

[[record]]
chemical_structure = "COc1ccc(C)cc1C(=O)N(NC(=O)c1cccc(OC)c1C)C(C)(C)C"
recorded_number = 391

[[record]]
chemical_structure = "C=Cc1c(OC)cccc1C(=O)NN(C(=O)c1cc(F)c(Cl)cc1Cl)C(C)(C)C"
recorded_number = 211

[[record]]
chemical_structure = "CC(C)(C)N(NC(=O)c1c(F)cccc1F)C(=O)c1cc(Cl)cc(Cl)c1"
recorded_number = 16

[[record]]
chemical_structure = "CCc1ccccc1C(=O)N(NC(=O)c1cccc(OC)c1C)C(C)(C)C"
recorded_number = 319

